binders and their reported DC-MLR Assay (EC50 nM)
target: human CD28 (human, UniProt P10747 19-220); experiment: cell-based or functional assay

>  <binder>
1h-239-891(D70C) 40K branched PEG (other, 40 kDa branched PEG; engineered cysteine D70C) VL: DIQMTQSPSSLSASVGDRVTITCRASRPIWPFLEWYQQKPGKAPKLLIYFTSRLRHGVPSRFSGSGSGTCFTLTISSLQPEDFATYYCLQNVANPATFSQGTKVEIKR

>  <DC-MLR Assay (EC50 nM)>
2.3

$$$$
>  <binder>
1h-239-850 40K linear PEG (other, 40K linear PEG; site of attachment not stated) VL: DIQMTQSPSSLSASVGDRVTITCRASRPIWPFLEWYQQKPGKAPKLLIYFTSRLQSGVPSRFSGSGSGTDFTLTISSLQPEDFATYYCLQNVSMPATFSQGTKVEIKR

>  <DC-MLR Assay (EC50 nM)>
4

$$$$
>  <binder>
1h-99-2 40K linear PEG (other, 40K linear PEG; site of attachment not stated) VH: EVQLLESGGGLVQPGGSLRLSCAASGFTFDSANMSWVRQAPGKGLEWVSWIEDTGTQTFYADSVKGRFTISRDNSKNTLYLQMNSLRAEDTAVYYCAKSPFGPLYGFDYRGQGTLVTVSS

>  <DC-MLR Assay (EC50 nM)>
390

$$$$
>  <binder>
1h-99-237 (other) VH: EVQLLESGGGLVQPGGSLRLSCAASGFTFDSANMSWARQAPGKGLEWVSWIEAPGVQTFYADSVRGRFTISRDNSKNTLYLQMNSLRAEDTAVYYCARSPFGPLYGFDYRGQGTLVTVSS

>  <DC-MLR Assay (EC50 nM)>
3

$$$$
>  <binder>
1h-239-891(K42C) 40K branched PEG (other, 40K branched PEG; engineered cysteine K42C) VL: DIQMTQSPSSLSASVGDRVTITCRASRPIWPFLEWYQQKPGCAPKLLIYFTSRLRHGVPSRFSGSGSGTDFTLTISSLQPEDFATYYCLQNVANPATFSQGTKVEIKR

>  <DC-MLR Assay (EC50 nM)>
13

$$$$
>  <binder>
1h-239-891(Q3C) 40K branched PEG (other, 40K branched PEG; engineered cysteine Q3C) VL: DICMTQSPSSLSASVGDRVTITCRASRPIWPFLEWYQQKPGKAPKLLIYFTSRLRHGVPSRFSGSGSGTDFTLTISSLQPEDFATYYCLQNVANPATFSQGTKVEIKR

>  <DC-MLR Assay (EC50 nM)>
1.5

$$$$
>  <binder>
1h-99-237 40K linear PEG (other, 40K linear PEG; site of attachment not stated) VH: EVQLLESGGGLVQPGGSLRLSCAASGFTFDSANMSWARQAPGKGLEWVSWIEAPGVQTFYADSVRGRFTISRDNSKNTLYLQMNSLRAEDTAVYYCARSPFGPLYGFDYRGQGTLVTVSS

>  <DC-MLR Assay (EC50 nM)>
2

$$$$
>  <binder>
1h-239-891(Q79C) 40K branched PEG (other, 40K branched PEG; engineered cysteine Q79C) VL: DIQMTQSPSSLSASVGDRVTITCRASRPIWPFLEWYQQKPGKAPKLLIYFTSRLRHGVPSRFSGSGSGTDFTLTISSLCPEDFATYYCLQNVANPATFSQGTKVEIKR

>  <DC-MLR Assay (EC50 nM)>
4.9

$$$$
>  <binder>
1h-239-891(S60C) 30K linear PEG (other, 30K linear PEG; engineered cysteine S60C) VL: DIQMTQSPSSLSASVGDRVTITCRASRPIWPFLEWYQQKPGKAPKLLIYFTSRLRHGVPCRFSGSGSGTDFTLTISSLQPEDFATYYCLQNVANPATFSQGTKVEIKR

>  <DC-MLR Assay (EC50 nM)>
0.8

$$$$
>  <binder>
1h-239-8 40K linear PEG (other, 40K linear PEG; site of attachment not stated) VL: DIQMTQSPSSLSASVGDRVTITCRASQSIYPFLEWYQQKPGKAPKLLIYFTSRLQSGVPSRFSGSGSGTDFTLTISSLQPEDFATYYCLQNVTNPATFSQGTKVEIKR

>  <DC-MLR Assay (EC50 nM)>
285

$$$$
>  <binder>
1h-239-891(G41C) 40K branched PEG (other, 40K branched PEG; engineered cysteine G41C) VL: DIQMTQSPSSLSASVGDRVTITCRASRPIWPFLEWYQQKPCKAPKLLIYFTSRLRHGVPSRFSGSGSGTDFTLTISSLQPEDFATYYCLQNVANPATFSQGTKVEIKR

>  <DC-MLR Assay (EC50 nM)>
2

$$$$
>  <binder>
1h-99-238 40K linear PEG (other, 40K linear PEG; site of attachment not stated) VH: EVQLLESGGGLVQPGGSLRLSCAASGFTFDSANMSWARQAPGKGLEWVSWIEASGVQTFYADSVKGRFTISRDNSKNTLYLQMNSLRAEDTAVYYCAKSPFGPLYGFDYRGQGTLVTVSS

>  <DC-MLR Assay (EC50 nM)>
29

$$$$
>  <binder>
1h-239-850 (other) VL: DIQMTQSPSSLSASVGDRVTITCRASRPIWPFLEWYQQKPGKAPKLLIYFTSRLQSGVPSRFSGSGSGTDFTLTISSLQPEDFATYYCLQNVSMPATFSQGTKVEIKR

>  <DC-MLR Assay (EC50 nM)>
2

$$$$
>  <binder>
1h-99-2 (other) VH: EVQLLESGGGLVQPGGSLRLSCAASGFTFDSANMSWVRQAPGKGLEWVSWIEDTGTQTFYADSVKGRFTISRDNSKNTLYLQMNSLRAEDTAVYYCAKSPFGPLYGFDYRGQGTLVTVSS

>  <DC-MLR Assay (EC50 nM)>
13

$$$$
>  <binder>
1h-99-238 (other) VH: EVQLLESGGGLVQPGGSLRLSCAASGFTFDSANMSWARQAPGKGLEWVSWIEASGVQTFYADSVKGRFTISRDNSKNTLYLQMNSLRAEDTAVYYCAKSPFGPLYGFDYRGQGTLVTVSS

>  <DC-MLR Assay (EC50 nM)>
5

$$$$
>  <binder>
1h-99-2 40K branched PEG (other, 40K branched PEG; site of attachment not stated) VH: EVQLLESGGGLVQPGGSLRLSCAASGFTFDSANMSWVRQAPGKGLEWVSWIEDTGTQTFYADSVKGRFTISRDNSKNTLYLQMNSLRAEDTAVYYCAKSPFGPLYGFDYRGQGTLVTVSS

>  <DC-MLR Assay (EC50 nM)>
383

$$$$
